# tgt: UniProtKB Q9QYN8
# experimental details: Displacement of N-[3H]methylhistamine from histamine H3 receptor in rat cortex
# settings: read-out: Ki
value kind: Ki (nM)
# number only, unit nM dropped from output

                                   compound               tgt  measured_result
0  C1=C(c2ccc(CCN3CCCC3)cc2)[C@H]2CN(Cc3ccccc3)C[C@H]2C1  UniProtKB Q9QYN8             0.75

I'd like to know its Ki. The compound in question is CN1CCN(CCc2ccc(C3=CCC4CN(Cc5ccccc5)CC34)cc2)CC1 (stereo not given)
58

I'd like to know its Ki. The compound in question is C1=C(c2ccc(CCN3CCOCC3)cc2)C2CN(Cc3ccccc3)CC2C1 (stereo not given)
1.7

---

# tgt: Histamine H3 receptor (Rattus norvegicus)
# experimental details: Displacement of N-[3H]methylhistamine from histamine H3 receptor in rat cortex
# settings: read-out: Ki
Recorded log10(Ki) values for a group of molecules are listed next.
Scale: decimal log of Ki, Ki in nM.

I'd like to know its log10(Ki). The molecule in question is C1=C(c2ccc(CCN3CCCC3)cc2)[C@@H]2CN(CC3CC3)C[C@@H]2C1
-1.15

I'd like to know its log10(Ki). The molecule in question is C1=C(c2ccc(CCN3Cc4ccccc4C3)cc2)C2CN(Cc3ccccc3)CC2C1 (stereo not given)
2.41

I'd like to know its log10(Ki). The molecule in question is C1=C(c2ccc(CCN3CCCC3)cc2)C2CN(c3cncnc3)CC2C1 (stereo not given)
0.85

I'd like to know its log10(Ki). The molecule in question is C1=C(c2ccc(CCN3CCCC3)cc2)C2CN(C3CCCC3)CC2C1 (racemic)
-0.40

I'd like to know its log10(Ki). The molecule in question is FC1(F)CCN(CCc2ccc(C3=CCC4CN(Cc5ccccc5)CC34)cc2)C1 (stereo not given)
0.45

---

# tgt: Histamine H3 receptor (Rattus norvegicus)
# experimental details: Displacement of N-[3H]methylhistamine from histamine H3 receptor in rat cortex
# settings: read-out: Ki
pKi: −log10 of the molar value.
Label fulfilled when pKi is at or above 9; anything below gets not fulfilled.

Completed entries (count: 8):
>>> print(df.to_string())
                                   molecule  classification
0  C1=C(c2ccc(CCN3CCCC3)cc2)C2CN(CC3CC3)CC2C1 (racemic)       fulfilled
1  C1=C(c2ccc(CCN3CCC3)cc2)C2CN(Cc3ccccc3)CC2C1 (stereo not given)   not fulfilled
2  C1=C(c2ccc(CCN3CCCC3)cc2)C2CN(c3ncccn3)CC2C1 (stereo not given)   not fulfilled
3  C1=C(c2ccc(CCN3CCCC3)cc2)C2CN(c3ccccc3)CC2C1 (stereo not given)   not fulfilled
4  C1=C(c2ccc(CCN3CCCC3)cc2)C2CN(c3ccccn3)CC2C1 (stereo not given)   not fulfilled
5  C1=C(c2ccc(CCN3CCCC3)cc2)[C@@H]2CN(C3CCCC3)C[C@@H]2C1       fulfilled
6  C[C@H]1[C@H]2CC[C@H]3[C@@H]4CC=C5C[C@@H](N(C)C)CC[C@]5(C)[C@H]4CC[C@]23CN1C   not fulfilled
7  C1=C(c2ccc(CCN3CCCCC3)cc2)C2CN(Cc3ccccc3)CC2C1 (stereo not given)       fulfilled

Then there is this molecule:
Identify whether the reported pKi of the following molecule is 9 or greater: OC[C@@H]1CCCN1CCc1ccc(C2=CCC3CN(Cc4ccccc4)CC23)cc1 (stereo not given in full)
fulfilled

---

# experimental details: Half life in rat
# Type: ADME, organism-based
# settings: in vivo
value kind: half-life (h)
# number only, unit h dropped from output

I'd like to know its half-life. The compound in question is C1=C(c2ccc(CCN3CCCC3)cc2)[C@@H]2CN(CC3CC3)C[C@@H]2C1
6

---

# experimental details: Oral bioavailability in rat
# Format: ADME, organism-based
# settings: in vivo
value kind: bioavailability (%)
# number only, unit % dropped from output

I'd like to know its bioavailability. The compound in question is C1=C(c2ccc(CCN3CCCC3)cc2)[C@@H]2CN(CC3CC3)C[C@@H]2C1
78

---

# tgt: Histamine H3 receptor (Rattus norvegicus, UniProt Q9QYN8)
# Sequence (Q9QYN8 whole entry): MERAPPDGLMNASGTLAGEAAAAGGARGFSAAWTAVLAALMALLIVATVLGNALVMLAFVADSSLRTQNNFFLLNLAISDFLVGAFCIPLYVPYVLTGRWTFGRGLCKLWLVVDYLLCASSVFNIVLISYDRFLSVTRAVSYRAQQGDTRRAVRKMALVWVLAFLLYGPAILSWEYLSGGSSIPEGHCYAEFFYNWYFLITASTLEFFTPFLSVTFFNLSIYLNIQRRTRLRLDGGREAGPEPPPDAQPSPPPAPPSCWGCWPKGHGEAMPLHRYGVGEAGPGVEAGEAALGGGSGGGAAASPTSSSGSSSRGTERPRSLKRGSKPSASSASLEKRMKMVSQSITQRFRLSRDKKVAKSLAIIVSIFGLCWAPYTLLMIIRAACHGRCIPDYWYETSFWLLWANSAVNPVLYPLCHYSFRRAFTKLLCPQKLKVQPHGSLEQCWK
# experimental details: Displacement of N-[3H]methylhistamine from histamine H3 receptor in rat cortex
# settings: read-out: Ki
pKi: −log10 of the molar value.
Label Yes when pKi is at or above 9; anything below gets No.

In [3]: df
Out[3]:
                                   compound  classification
0  O=C1CCCN1CCc1ccc(C2=CCC3CN(Cc4ccccc4)CC23)cc1 (configuration not stated)              No
1  CC1CCCN1CCc1ccc(C2=CCC3CN(Cc4ccccc4)CC23)cc1 (configuration not stated)             Yes
2  CC(C)N1C[C@@H]2CC=C(c3ccc(CCN4CCCC4)cc3)[C@@H]2C1             Yes

Identify whether the reported pKi of the following compound is 9 or greater: C1=C(c2ccc(CCN3CCCC3)cc2)[C@@H]2CN(Cc3ccccc3)C[C@@H]2C1
Yes

Identify whether the reported pKi of the following compound is 9 or greater: OC[C@H]1CCCN1CCc1ccc(C2=CCC3CN(Cc4ccccc4)CC23)cc1 (some centres not stated)
Yes

Identify whether the reported pKi of the following compound is 9 or greater: C1=C(c2ccc(CCN3CCCC3)cc2)C2CN(Cc3ccccc3)CC2C1 (configuration not stated)
Yes

Identify whether the reported pKi of the following compound is 9 or greater: CN(C)CCc1ccc(C2=CCC3CN(Cc4ccccc4)CC23)cc1 (configuration not stated)
No
